- assayedSystem: D(4) dopamine receptor (Homo sapiens, UniProt P21917)
- Sequence (P21917 whole entry): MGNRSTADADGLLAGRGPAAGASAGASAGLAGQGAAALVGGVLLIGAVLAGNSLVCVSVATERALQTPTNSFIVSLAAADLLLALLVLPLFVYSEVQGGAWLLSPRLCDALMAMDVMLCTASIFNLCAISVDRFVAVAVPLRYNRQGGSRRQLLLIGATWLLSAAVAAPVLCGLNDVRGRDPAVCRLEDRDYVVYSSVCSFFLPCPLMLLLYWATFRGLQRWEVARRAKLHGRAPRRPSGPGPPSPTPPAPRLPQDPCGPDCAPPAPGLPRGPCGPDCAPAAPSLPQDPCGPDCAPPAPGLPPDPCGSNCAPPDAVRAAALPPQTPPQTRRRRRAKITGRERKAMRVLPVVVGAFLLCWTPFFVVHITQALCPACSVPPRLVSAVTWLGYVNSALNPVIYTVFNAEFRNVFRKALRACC
pKi: −log10 of the molar value.
Is pKi at least 8? Then label 1. If not, label 0.

# count of solved cases: 4
[[record]]
smilesinput = "Cc1cc2nc(C)c(CN3CCN(c4ccc(Cl)c(Cl)c4)CC3)n2c(C)n1"
classification = "label 0"

[[record]]
smilesinput = "Cc1cc2nc(C)c(CN3CCN(c4ccccn4)CC3)n2c(C)n1"
classification = "label 0"

[[record]]
smilesinput = "Cn1c(N2CCCC2)nc2c(CN3CCN(c4ccc(Cl)c(Cl)c4)CC3)c[nH]c2c1=O"
classification = "label 1"

[[record]]
smilesinput = "COc1ccccc1N1CCN(Cc2c(C)nc3cc(C)ncn23)CC1"
classification = "label 0"


Could you tell me if the measured pKi of COc1ccccc1N1CCN(Cc2cc3c(=O)[nH]c(N(C)C)nc3[nH]2)CC1 reaches 8 or more?
label 1

Would you say Cc1cc2nc(C)c(CN3CCN(c4ccccc4)CC3)n2c(C)n1 shows pKi at minimum 8?
label 0

Is it the case that COc1ccc(N2CCN(Cc3c(C)nc4cc(C)nc(C)n34)CC2)cc1 has pKi reaching or exceeding 8?
label 0

###

// values below are pKi; system is D(3) dopamine receptor (Homo sapiens)
Sequence (P35462 whole entry): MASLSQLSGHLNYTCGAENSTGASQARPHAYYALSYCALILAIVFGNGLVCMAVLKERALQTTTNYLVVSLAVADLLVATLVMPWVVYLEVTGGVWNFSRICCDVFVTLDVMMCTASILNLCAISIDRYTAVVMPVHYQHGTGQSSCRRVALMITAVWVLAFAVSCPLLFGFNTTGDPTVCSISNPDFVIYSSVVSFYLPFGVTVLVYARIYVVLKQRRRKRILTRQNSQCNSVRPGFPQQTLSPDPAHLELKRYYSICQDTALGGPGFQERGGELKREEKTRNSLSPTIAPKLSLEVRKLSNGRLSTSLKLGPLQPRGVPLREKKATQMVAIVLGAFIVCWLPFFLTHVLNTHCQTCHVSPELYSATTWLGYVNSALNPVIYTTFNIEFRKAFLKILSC
Give only the number. pKi is defined as minus log10 of concentration in molar units.

Worked set:
[[record]]
smilesinput = "COc1ccccc1N1CCN(Cc2c(C)nc3cc(C)nc(C)n23)CC1"
assayedsystem = "D(3) dopamine receptor (Homo sapiens)"
recordedendpoint = "pKi"
recordednumber = 5.47

[[record]]
smilesinput = "Cc1cc2nc(C)c(CN3CCN(c4ccccn4)CC3)n2c(C)n1"
assayedsystem = "D(3) dopamine receptor (Homo sapiens)"
recordedendpoint = "pKi"
recordednumber = 6.19

[[record]]
smilesinput = "COc1ccccc1N1CCN(Cc2c(C)nc3cc(C)ncn23)CC1"
assayedsystem = "D(3) dopamine receptor (Homo sapiens)"
recordedendpoint = "pKi"
recordednumber = 4.17

[[record]]
smilesinput = "Cc1cc2nc(C)c(CN3CCN(c4ccc(Cl)c(Cl)c4)CC3)n2c(C)n1"
assayedsystem = "D(3) dopamine receptor (Homo sapiens)"
recordedendpoint = "pKi"
recordednumber = 5.89

[[record]]
smilesinput = "Cc1cc2nc(C)c(CN3CCN(c4ccc(Cl)cc4)CC3)n2c(C)n1"
assayedsystem = "D(3) dopamine receptor (Homo sapiens)"
recordedendpoint = "pKi"
recordednumber = 5.51


Now, please, on to the next compound.
Query: pKi; subject: COc1ccccc1N1CCN(Cc2c(C)[nH]c3nc(N(C)C)ncc23)CC1
5.21

###

- assayedSystem: D(2) dopamine receptor (Homo sapiens)
- Sequence (P14416 whole entry): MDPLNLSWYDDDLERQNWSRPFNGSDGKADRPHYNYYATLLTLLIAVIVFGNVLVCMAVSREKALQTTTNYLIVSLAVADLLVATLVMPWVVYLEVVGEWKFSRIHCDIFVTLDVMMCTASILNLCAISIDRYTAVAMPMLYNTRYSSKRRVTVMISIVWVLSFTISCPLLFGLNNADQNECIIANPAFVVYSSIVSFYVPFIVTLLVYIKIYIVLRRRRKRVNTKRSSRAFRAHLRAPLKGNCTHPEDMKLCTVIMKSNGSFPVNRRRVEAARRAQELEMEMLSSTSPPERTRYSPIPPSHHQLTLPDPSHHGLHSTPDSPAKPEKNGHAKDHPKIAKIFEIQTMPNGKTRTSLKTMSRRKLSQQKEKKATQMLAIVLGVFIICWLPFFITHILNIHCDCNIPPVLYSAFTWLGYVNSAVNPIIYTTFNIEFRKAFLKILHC
- assayOverview: biochemical
- Description: Displacement of [3H]spiroperidol from human cloned dopamine D2 short receptor expressed in CHO cells
recordedEndpoint: Ki (nM)
Give just the numeric value; nM need not be written.

[[record]]
smilesinput = "Cn1c(N2CCOCC2)nc2c(CN3CCN(c4ccccc4)CC3)c[nH]c2c1=O"
recordedendpoint = "Ki"
recordednumber = 730

[[record]]
smilesinput = "Clc1nccc2c(CN3CCN(c4ccccc4)CC3)c[nH]c12"
recordedendpoint = "Ki"
recordednumber = 2900


What value of Ki has been reported for the following molecule? Cc1cc2nc(C)c(CN3CCN(c4ccccn4)CC3)n2c(C)n1
10000

Give its Ki value. Item: Cc1cc2nc(C)c(CN3CCN(c4ccc(Cl)c(Cl)c4)CC3)n2c(C)n1
5500

Query (molecule): Cc1cc2nc(C)c(CN3CCN(c4ccc(Cl)cc4)CC3)n2c(C)n1 ; field requested: Ki
57000

Given the entry COc1ccccc1N1CCN(Cc2cc3c(=O)[nH]c(N(C)C)nc3[nH]2)CC1 , report its measured Ki.
170

Which Ki reading was recorded for the molecule COc1ccc(N2CCN(Cc3c(C)nc4cc(C)nc(C)n34)CC2)cc1 ?
160

Could you tell me which Ki is on file for Cc1cc2nc(C)c(CN3CCN(c4ccccc4)CC3)n2c(C)n1 ?
11000

Record request: Ki value, item COc1ccccc1N1CCN(Cc2c(C)nc3cc(C)ncn23)CC1
53000

Name the recorded Ki for Cn1c(N2CCCC2)nc2c(CN3CCN(c4ccccc4)CC3)c[nH]c2c1=O .
180

Requested field: Ki. Item: Cc1cc2nc(C)c(CN3CCN(c4ccc(F)cc4)CC3)n2c(C)n1
3500

// lookup Ki for COc1ccccc1N1CCN(Cc2c(C)[nH]c3nc(N(C)C)ncc23)CC1
2900

###

- assayedSystem: UniProt P14416
- assayOverview: Displacement of [3H]spiperone from human cloned dopamine D2 long receptor expressed in CHO cells at 100 nM
- Type: cell-based
Documented Activity across a set of compounds
Give the number; % is assumed, so skip it.

[[record]]
smilesinput = "COc1ccccc1N1CCN(Cc2cnc3cc(C)ncn23)CC1"
assayedsystem = "UniProt P14416"
recordednumber = 0

[[record]]
smilesinput = "Cc1cc2nc(C)c(CN3CCN(c4ccccn4)CC3)n2cn1"
assayedsystem = "UniProt P14416"
recordednumber = 0

[[record]]
smilesinput = "COc1ccccc1N1CCN(Cc2cc3c(=O)[nH]c(N(C)C)nc3[nH]2)CC1"
assayedsystem = "UniProt P14416"
recordednumber = 20

[[record]]
smilesinput = "COc1ccc(N2CCN(Cc3c(C)[nH]c4nc(N(C)C)ncc34)CC2)cc1"
assayedsystem = "UniProt P14416"
recordednumber = 0

[[record]]
smilesinput = "CCOC(=O)c1nc2cc(C)nc(C)n2c1CN1CCN(c2ccc(OC)cc2)CC1"
assayedsystem = "UniProt P14416"
recordednumber = 0

[[record]]
smilesinput = "COc1ccccc1N1CCN(Cc2c(C)[nH]c3nc(N(C)C)ncc23)CC1"
assayedsystem = "UniProt P14416"
recordednumber = 20


Recorded Activity of COc1ccc(N2CCN(Cc3cnc4ccncn34)CC2)cc1 , please.
0

Recorded Activity of COc1ccc(N2CCN(Cc3c(C)nc4cc(C)nc(C)n34)CC2)cc1 , please.
0

Form field: reported Activity of Cc1cc2ncc(CN3CCN(c4ccc(Cl)cc4)CC3)n2c(C)n1
0

I am curious: what Activity value has been reported for Cc1cc2ncc(CN3CCN(c4ccc(Cl)c(Cl)c4)CC3)n2c(C)n1 ?
0

What measured Activity goes with Cc1cc2ncc(CN3CCN(c4ccccc4)CC3)n2cn1 ?
0

###

Activity overview
- assayedSystem: D(4) dopamine receptor (Homo sapiens)
- assayOverview: Displacement of [3H]spiperone from human cloned dopamine D4.4 receptor expressed in CHO cells at 100 nM
- Assay type: cell-based
Your answer should be a plain number; it is taken to be in %.

[[record]]
smilesinput = "Cc1cc2ncc(CN3CCN(c4ccc(Cl)cc4)CC3)n2cn1"
assayedsystem = "D(4) dopamine receptor (Homo sapiens)"
unitstring = "%"
recordednumber = 0

[[record]]
smilesinput = "COc1ccc(N2CCN(Cc3c(C)[nH]c4nc(N(C)C)ncc34)CC2)cc1"
assayedsystem = "D(4) dopamine receptor (Homo sapiens)"
unitstring = "%"
recordednumber = 0


What measured Activity is associated with Cc1cc2nc(C)c(CN3CCN(c4ccccn4)CC3)n2cn1 on D(4) dopamine receptor (Homo sapiens)?
40

Request - read-out Activity | tested on D(4) dopamine receptor (Homo sapiens) | compound COc1cc2ncc(CN3CCN(c4ccccc4OC)CC3)n2c(OC)n1
20

// map COc1ccccc1N1CCN(Cc2c(C)nc3cc(C)ncn23)CC1 to recorded Activity (system: D(4) dopamine receptor (Homo sapiens))
20

Enter reported Activity observed with D(4) dopamine receptor (Homo sapiens) for Cc1cc2ncc(CN3CCN(c4ccccc4)CC3)n2c(C)n1
0

Report Activity for CCOC(=O)c1nc2cc(C)nc(C)n2c1CN1CCN(c2ccc(OC)cc2)CC1 tested on D(4) dopamine receptor (Homo sapiens).
0

Find the measured Activity: item Cc1cc2nc(C)c(CN3CCN(c4ccc(Cl)cc4)CC3)n2cn1 , target or system D(4) dopamine receptor (Homo sapiens).
0

Write down the reported Activity of CCOC(=O)c1nc2cc(C)nc(C)n2c1CN1CCN(c2ccccc2OC)CC1 , test system: D(4) dopamine receptor (Homo sapiens).
0

Notebook entry, D(4) dopamine receptor (Homo sapiens) assay: Activity of Cc1cc2ncc(CN3CCN(c4ccccn4)CC3)n2cn1 = ?
0

Quick check: Activity on D(4) dopamine receptor (Homo sapiens), item Cc1cc2ncc(CN3CCN(c4ccc(Cl)c(Cl)c4)CC3)n2cn1 ?
0

For the record Cc1cc2ncc(CN3CCN(c4ccccn4)CC3)n2c(C)n1 , what value of Activity is listed for D(4) dopamine receptor (Homo sapiens)?
0

Recorded Activity for Cc1cc2ncc(CN3CCN(c4ccc(Cl)cc4)CC3)n2c(C)n1 with D(4) dopamine receptor (Homo sapiens), please?
0

For D(4) dopamine receptor (Homo sapiens), provide Activity of Cc1cc2nc(C)c(CN3CCN(c4ccccc4)CC3)n2cn1 please.
0

Request - read-out Activity | tested on D(4) dopamine receptor (Homo sapiens) | compound COc1ccc(N2CCN(Cc3c(C)nc4cc(C)nc(C)n34)CC2)cc1
0

Report Activity for COc1ccccc1N1CCN(Cc2cc3c(=O)[nH]c(N(C)C)nc3[nH]2)CC1 tested on D(4) dopamine receptor (Homo sapiens).
60
